test system: Fibroblast; assay: Multiplex assay against human fibroblast; type: toxicity, cell-based; details: 12 h, 10 µM, compound concentration 10 uM, replicate 2
value.type: Population Mitotic Cells (%)
# number only, unit % dropped from output

Sample answers from the record:
{"columns": ["molecule", "test.target", "Population Mitotic Cells (%)"],
 "data": [
  ["COc1ccc(NS(=O)(=O)c2sc3ccc(Cl)cc3c2C)cc1N1CCNCC1.Cl", "Fibroblast", 38],
  ["Cl.Cl.Nc1ncnc2c1c(-c1cccc(OCc3ccccc3)c1)cn2[C@H]1C[C@@H](CN2CCC2)C1", "Fibroblast", 14],
  ["CC(=O)c1cc(-c2cc(C(=O)NC3CC3)ccc2C)c2ncccn12", "Fibroblast", 40],
  ["CCn1c(-c2nonc2N)nc2cnc(Oc3cccc(NC(=O)c4ccc(OCCN5CCOCC5)cc4)c3)cc21 [GSK-269962A]", "Fibroblast", 68],
  ["CNC(=O)c1cc(Oc2ccc(NC(=O)Nc3cc(C(C)(C)C)nn3-c3ccc4ncccc4c3)c(F)c2)ccn1 [REBASTINIB]", "Fibroblast", 14],
  ["Cl.Cl.NC1(c2ccc(-c3nc4ccn5c(=O)[nH]nc5c4cc3-c3ccccc3)cc2)CCC1", "Fibroblast", 20],
  ["Nc1nc2c(c(N3CCNCC3)n1)CCC1=C2[C@@H]2CCCC[C@@H]2O1", "Fibroblast", 72]
]}

Req: API: value(readout=Population Mitotic Cells (%), system=Fibroblast) for record Cc1cn(-c2cc(NC(=O)c3ccc4c(c3)CN(c3cncnc3)C[C@@H]4C)cc(C(F)(F)F)c2)cn1
Resp: 25

---

system: U2OS; assay: Multiplex assay against U2OS; type: toxicity, cell-based; details: human, 12 h, 10 µM, compound concentration 10 uM, replicate 1
Cut-off 10% on Population Membrane Permeable-Phenotype (%): below means met, at or above means not met.

Would you please look over these solved cases?
{"columns": ["compound", "category"],
 "data": [
  ["CCOc1cc(N2CCC(O)CC2)ccc1Nc1ncc2c(n1)N(C1CCCC1)CCC(=O)N2C", "met"],
  ["CNc1oc(-c2cccc3ccccc23)nc1C#N", "met"],
  ["Nc1nc2c(c(N3CCNCC3)n1)CCC1=C2[C@@H]2CCCC[C@@H]2O1", "not met"],
  ["CCc1cc2c(cc1CC)CC(NC[C@H](O)c1ccc(O)c3[nH]c(=O)ccc13)C2", "not met"]
]}

Req: Decide: Population Membrane Permeable-Phenotype (%) of CNC(=O)c1cc(Oc2ccc(NC(=O)Nc3cc(C(C)(C)C)nn3-c3ccc4ncccc4c3)c(F)c2)ccn1 strictly below 10%?
Resp: not met

Req: Decide: Population Membrane Permeable-Phenotype (%) of O=C(O)c1ccc2cc(-c3ccc(O)c(C45CC6CC(CC(C6)C4)C5)c3)ccc2c1 strictly below 10%?
Resp: met

---

tested on: HEK-293T; assay: Multiplex assay against HEK293T; format: toxicity, cell-based; conditions: human, 12 h, 10 µM, compound concentration 10 uM, replicate 2
Cut-off 30% on Population Healthy Nuclei (%): below means met, at or above means not met.

Would you please look over these solved cases?
{"columns": ["compound", "category"],
 "data": [
  ["Cc1cc2c(cc1N1C(=O)c3cccc4c(CCCO)ccc(c34)C1=O)n(C)c(=O)n2C", "not met"],
  ["CNc1oc(-c2cccc3ccccc23)nc1C#N", "met"]
]}

Kindly consider the entry below.
Req: Decide: Population Healthy Nuclei (%) of Nc1ccc(C(=O)Nc2cccc(-c3nc(N4CCOCC4)c4oc5ncccc5c4n3)c2)cn1 strictly below 30%?
Resp: met

Source of measurements: ChEMBL document CHEMBL4689842
